tested on: M. tuberculosis H37Rv growth inhibition, 7H9 media; test: M. tuberculosis growth inhibition, HTS (AID 449762); settings: measured here: IC90 growth inhibition;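 note: bacterial growth assessed after seven days of incubation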
Results filed as inconclusive are left out.
Parameter Measured: IC90 (µM)
Give bare numbers, in µM.

>>> print(df.to_string())
                           smiles_notation  parameter_measured  number
0  Oc1ccc(N=Nc2n[nH]c(-c3ccc(Cl)cc3)n2)cc1                IC90      59

Now examine the next entry.
*Q* Provide measured IC90 value, entry: `c1ccc(CCN2CCN(c3ncnc4c3cnn4-c3ccccc3)CC2)cc1`
*A* 43

----------
system: M. tuberculosis H37Rv growth inhibition, 7H9 media; experiment: M. tuberculosis growth inhibition, HTS (AID 449762); details: measured here: IC90 growth inhibition;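 note: bacterial growth assessed after seven days of incubation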
Records with an inconclusive call do not appear.
Assign IC90 to each entry below.
Answers are plain numbers, in µM.

Please give IC90, item by item, for the list that follows.
1. OC(COC(c1ccc(Cl)cc1)c1ccc(Cl)cc1)CN1CCc2ccccc2C1 (stereo unspecified)
2. CCOC(=O)c1ccc(-n2c(CCC(=O)O)ccc2-c2cccs2)cc1
3. CC1CCC/C(=N\NC(=S)Nc2ccccc2)C1 (stereo unspecified)
4. COC(=O)c1cc(Sc2cccc(Cl)c2Cl)ccn1
5. CCc1nnc(NS(=O)(=O)c2ccc(N/C=C\C(=O)c3cccc(OC)c3)cc2)s1
6. C=C1CCC[C@]2(C)C[C@H]3OC(=O)C(CNC(C)CCCC(C)C)[C@H]3CC12 (stereo partly specified)
7. COc1ccc(/C=N/Nc2nncn2N)cc1Br

*A*
1: 24.7; 2: 14; 3: 67.5; 4: 30.7; 5: 35.5; 6: 24.2; 7: 16.3

----------
tested on: M. tuberculosis H37Rv growth inhibition, 7H9 media; assay: M. tuberculosis growth inhibition, HTS (AID 449762); settings: measured here: IC90 growth inhibition;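 note: bacterial growth assessed after seven days of incubation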
Inconclusive results are not listed.
Parameter Measured: IC90 (µM)
One number for each entry, in µM.

Some solved entries appear below for comparison.
In [3]: df
Out[3]:
                                 compound                            assayed_system  parameter_measured  number
0     CN(C(=S)NC(=O)c1ccc(Cl)cc1)C1CCCCC1  M. tuberculosis H37Rv growth inhibition, 7H9 media                IC90    13.7
1  Cc1ccc(S(=O)(=O)/N=C(\CCl)N2CCOCC2)cc1  M. tuberculosis H37Rv growth inhibition, 7H9 media                IC90    14.9
2      CCCOc1ccc(-c2cnc(SCC(N)=O)nc2N)cc1  M. tuberculosis H37Rv growth inhibition, 7H9 media                IC90    50.2

Now examine the next entry.
*Q* Provide measured IC90 value, entry: CCC(C)NC(=O)c1c(N)n(/N=C/c2ccccn2)c2nc3ccccc3nc12 (stereo unspecified)
*A* 14.3

----------
tested on: M. tuberculosis H37Rv growth inhibition, 7H9 media; experiment: M. tuberculosis growth inhibition, HTS (AID 449762); settings: measured here: IC90 growth inhibition;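 note: bacterial growth assessed after seven days of incubation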
Records with an inconclusive call do not appear.
So basically every entry gets a class from its IC90, ranges being lower band: < 20 µM; central band: ≥ 20 µM and < 50 µM; upper band: ≥ 50 µM

Compound	Assayed System	Group
COc1ccc(-c2ccc(C#N)c(SCC(=O)OCc3ccccc3)n2)cc1OC	M. tuberculosis H37Rv growth inhibition, 7H9 media	upper band
CCCCC(=O)Nc1sc2c(c1C(=O)OCC)CCC(C=O)=C2Cl	M. tuberculosis H37Rv growth inhibition, 7H9 media	central band
CCOC(=O)c1cc(-c2ccc(N3CCOCC3)cc2)nn1-c1ccccc1	M. tuberculosis H37Rv growth inhibition, 7H9 media	central band
COc1ccc(COC(=O)CCNC(=O)c2ccc(Cl)cc2)cc1	M. tuberculosis H37Rv growth inhibition, 7H9 media	upper band
CCOC(=O)C1CCN(CC(O)COc2ccc(C(C)(C)CC)cc2)CC1 (stereo not given)	M. tuberculosis H37Rv growth inhibition, 7H9 media	central band

*Q* Assign a bin to `CCCCOc1ccc(Br)cc1/C(C)=N/NC1=NCCN1`
*A* central band

*Q* Assign a bin to COC(=O)C1C(O)C(C)C(O)C(C)/C=C\C=C(/C)C(=O)Nc2c(C)c(OC(C)=O)c3c(c2O)C(=O)C(C)=C2OCOC(=C23)/C(C)=C/C(C)(O)C(O)C(C)C1O (stereo not given)
*A* lower band

*Q* Assign a bin to `C(=N\Nc1nc(-c2ccccc2)cs1)/c1ccncc1`
*A* upper band

*Q* Assign a bin to `O=C(N/N=C(\c1ccccc1)c1ccccn1)c1ccccc1Cl`
*A* central band

*Q* Assign a bin to `CCN(CC(=O)NCc1cccs1)C(=O)c1ccc([N+](=O)[O-])o1`
*A* upper band

*Q* Assign a bin to `O=C(Cc1ccccc1)N/N=C/c1ccc2cccc(O)c2n1`
*A* lower band

----------
tested on: M. tuberculosis H37Rv growth inhibition, 7H9 media; assay: M. tuberculosis growth inhibition, HTS (AID 449762); conditions: measured here: IC90 growth inhibition;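 note: bacterial growth assessed after seven days of incubation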
Inconclusive results are not listed.
Simple rule here: IC90 less than 50 µM is Criterion met, otherwise Criterion not met.

Compound	Assayed System	Group
OC(CN1CCCCC1)Cn1c2ccc(Cl)cc2c2cc(Cl)ccc21 (stereo not given)	M. tuberculosis H37Rv growth inhibition, 7H9 media	Criterion met
Oc1ccc2ccccc2c1N=Nc1nccs1	M. tuberculosis H37Rv growth inhibition, 7H9 media	Criterion met
c1ccc(-c2c3ccccc3nc3[nH]c4ccccc4c23)cc1	M. tuberculosis H37Rv growth inhibition, 7H9 media	Criterion not met
Cc1cc(C)c(CSc2ncc(-c3ccc([N+](=O)[O-])cc3)[nH]2)c(C)c1	M. tuberculosis H37Rv growth inhibition, 7H9 media	Criterion not met
Oc1ccccc1/C=N/Nc1ccnc(SCc2ccccc2)n1	M. tuberculosis H37Rv growth inhibition, 7H9 media	Criterion met
Cc1ccc(NC(=O)C2=C(O)CCn3c2nc2ccccc23)cc1	M. tuberculosis H37Rv growth inhibition, 7H9 media	Criterion met
Cc1ccc2[nH]c3c(N4CCN(Cc5ccccc5)CC4)ncnc3c2c1	M. tuberculosis H37Rv growth inhibition, 7H9 media	Criterion met
Cc1ccc(S(=O)(=O)NC(CC(C)C)C(=O)N2CCN(C/C=C/c3ccccc3)CC2)cc1 (stereo not given)	M. tuberculosis H37Rv growth inhibition, 7H9 media	Criterion not met
CCc1ccc(/C=C2/C(=O)N(C)C(=S)N2CC(=O)OC)s1	M. tuberculosis H37Rv growth inhibition, 7H9 media	Criterion met
COc1cc(OC)cc(-c2cc3nc(C)c(CCC(=O)NC(C)CCc4ccco4)c(C)n3n2)c1 (stereo not given)	M. tuberculosis H37Rv growth inhibition, 7H9 media	Criterion not met

*Q* Hello, I'm reviewing records and need to know if IC90 of `CC1(C)c2cc(Cl)ccc2-n2c1cc(O)c(-c1ccccc1)c2=O` is below 50 µM. Could you check?
*A* Criterion met

*Q* Hello, I'm reviewing records and need to know if IC90 of `Cc1cc(=O)oc2cc(Oc3ccc([N+](=O)[O-])cc3C(F)(F)F)ccc12` is below 50 µM. Could you check?
*A* Criterion not met

*Q* Hello, I'm reviewing records and need to know if IC90 of O=S(Cc1ccc(Br)cc1)Cc1nnc(SCc2ccc(Cl)cc2)n1-c1ccccc1 (stereo not given) is below 50 µM. Could you check?
*A* Criterion not met

*Q* Hello, I'm reviewing records and need to know if IC90 of `Cc1onc(-c2ccccc2Cl)c1C(=O)Oc1cccc2cccnc12` is below 50 µM. Could you check?
*A* Criterion met

*Q* Hello, I'm reviewing records and need to know if IC90 of CC[C@H](C)[C@@H]1O[C@@]2(C=CC1C)CC1C[C@@H](CC=C(C)C(O[C@H]3CC(OC)C(O[C@H]4CC(OC)C(O)C(C)O4)C(C)O3)C(C)C=CC=C3CO[C@@H]4C(O)C(C)=C[C@@H](C(=O)O1)[C@]34O)O2 (stereo not given in full) is below 50 µM. Could you check?
*A* Criterion met

*Q* Hello, I'm reviewing records and need to know if IC90 of `N#CCCN(C(=O)COC(=O)CCc1c[nH]c2ccccc12)c1ccc(F)cc1` is below 50 µM. Could you check?
*A* Criterion not met

*Q* Hello, I'm reviewing records and need to know if IC90 of `CC(C)CCC[C@@H](C)[C@H]1CC[C@H]2[C@@H]3C(=O)C=C4C[C@@H](O)CC[C@]4(C)[C@H]3CC[C@]12C` is below 50 µM. Could you check?
*A* Criterion met

*Q* Hello, I'm reviewing records and need to know if IC90 of `Cc1ccc(S(=O)(=O)Nc2cccc3ncccc23)s1` is below 50 µM. Could you check?
*A* Criterion met

----------
system: M. tuberculosis H37Rv growth inhibition, 7H9 media; assay: M. tuberculosis growth inhibition, HTS (AID 449762); conditions: measured here: IC90 growth inhibition;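 note: bacterial growth assessed after seven days of incubation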
Results filed as inconclusive are left out.
Parameter Measured: log10 of IC90 (log10 of the value in µM)
Recall that a logarithmic scale is used here: each number is log10 of IC90 in µM.

Please give log10 of IC90, item by item, for the list that follows.
1. CC1(c2cc([N+](=O)[O-])cc([N+](=O)[O-])c2)CC(C)(C)N(C(=O)c2ccccc2)c2ccccc21 (centres undefined)
2. c1ccc(/N=C2\N=C(Nc3ccccn3)c3ccccc32)nc1
3. CC(C)Cn1c([N+](=O)[O-])nc2c1c(=O)[nH]c(=O)n2C
4. NC(N)=N/N=C/c1ccc(N(c2ccccc2)c2ccccc2)cc1
5. CCCCCCCCNC(C)C(O)c1ccc(SC(C)C)cc1 (centres undefined)
6. Cc1nn(-c2ccccc2)c(Cl)c1/C=C/C(=O)c1ccccc1
7. COc1cc(C)ccc1S(=O)(=O)N1CCN(C23CC4CC(CC(C4)C2)C3)CC1
8. O=[N+]([O-])c1cc([N+](=O)[O-])c2cc3ccccc3nc2c1

*A*
1. 1.29
2. 0.28
3. 0.95
4. 1.14
5. 1.50
6. 1.75
7. 1.64
8. -0.09

All figures here come from PubChem BioAssay AID449762.
